assay: Oral bioavailability in Wistar rat at 10 mg/kg; type: ADME, organism-based; conditions: in vivo
For each of the compounds below, state its bioavailability.
# value in %; strip the unit string

Query: // lookup bioavailability for "Cn1cnc2c(C#N)nc(-c3ccc(OCc4ccccn4)c(C(F)(F)F)c3)cc21"
Response: 54

Query: Which bioavailability value belongs to "CN(C)CCCOc1ccc(-c2cc3c(ncn3C)c(C#N)n2)cc1C(F)(F)F" ?
Response: 58

Query: Bench note: what bioavailability did "CCN1CCN(CCCOc2ccc(-c3cc4c(ncn4C)c(C#N)n3)cc2C(F)(F)F)CC1" show?
Response: 9

----------
test: Plasma clearance in Wistar rat at 2 mg/kg, iv and 10 mg/kg, po; type: ADME, organism-based
Hi there, I'd appreciate the recorded clearance for every entry that follows.

Query: Which measured clearance value corresponds to "CN(C)CCCOc1ccc(-c2cc3c(ncn3C)c(C#N)n2)cc1C(F)(F)F" ?
Response: 0.6 L/h/kg

Query: clearance for "CCN1CCN(CCCOc2ccc(-c3cc4c(ncn4C)c(C#N)n3)cc2C(F)(F)F)CC1" ?
Response: 1.68 L/h/kg

Query: // clearance lookup, key: "Cn1cnc2c(C#N)nc(-c3ccc(OCc4ccccn4)c(C(F)(F)F)c3)cc21"
Response: 19.6 L/h/kg
